Test system: P388 leukemia
assay: Cytotoxic activity in vivo: P388 leukemia model
Parameters: species or system mice
experimental.context: 4 mg/kg i.p. on day 1; 10^6 P388 cells i.p. day 0
I'd appreciate it if you could supply Median survival days (range) values for the items below.

Please review the following examples before continuing.
COc1cccc2c1C(=O)c1c(O)c3c(c(O)c1C2=O)C[C@@](O)(C(C)=O)C[C@@H]3O[C@H]1C[C@H](N)[C@H](O)[C@H](C)O1 | 14 (14-16) days
CCC1(O)CC(OC2CC(N(C)C)C(OC3CC(O)C(OC4CC(O)C(O)C(C)O4)C(C)O3)C(C)O2)c2c(O)c3c(c(O)c2C1O)C(=O)c1cccc(O)c1C3=O (stereo not shown) [Compound H075-10a] | 15 (14-17) days
CC1OC(OC2C(C)OC(OC3CC(C)(O)C(O)c4c(O)c5c(c(O)c43)C(=O)c3c(O)cccc3C5=O)CC2N(C)C)CC(O)C1O (stereo not shown) [Compound H075-11b] | 13 (12-13) days

Proceed to the following item.
[ask] Item under review: CCC1(O)CC(OC2CC(N(C)C)C(OC3CC(O)C(OC4CC(O)C(O)C(C)O4)C(C)O3)C(C)O2)c2c(O)c3c(c(O)c2C1C(=O)OC)C(=O)c1cccc(O)c1C3=O (stereo not shown) . Reported Median survival days (range)?
[reply] 15 (13-15) days

====

System: MLTC-1 leydig cell tumor
assay: Cytotoxicity assay, ATP detection, MLTC-1
Format: cell-based, mouse
experimental.context: MLTC-1 cells in vitro; read-out: ED50 MLTC-1
measured.metric: EC50 (µM)
Give bare numbers, in µM.

CCC1(O)CC(OC2CC(N(C)C)C(OC3CC(O)C(OC4CC(O)C(O)C(C)O4)C(C)O3)C(C)O2)c2c(cc3c(c2O)C(=O)c2c(O)cccc2C3=O)C1C(=O)OC (centres unmarked) | 0.6

Proceed to the following item.
[ask] Item under review: CCC1(O)CC(OC2CC(N(C)C)C(OC3CC(O)C(OC4CC(O)C(O)C(C)O4)C(C)O3)C(C)O2)c2c(O)c3c(c(O)c2C1C(=O)OC)C(=O)c1cccc(O)c1C3=O (centres unmarked) . Reported EC50?
[reply] 0.06
